assayExplanation: metabolic stability in cryopreserved hepatocytes
Format: in vitro ADME, mouse
conditionSet: male, CD-1, pH 7.4; Mouse cryopreserved hepatocytes; positive control 1 μM
measureName: half-life (min)
The reply should contain only the number, in min.

I have this compound here, C[C@]12CC[C@H]3[C@@H](CCC4=CC(=O)CC[C@@]43C)[C@@H]1CC[C@@H]2O [testosterone] , and I need its recorded half-life. 2.55

###

targetOfAssay: CYP2C8 (Homo sapiens)
Sequence (P10632 whole entry): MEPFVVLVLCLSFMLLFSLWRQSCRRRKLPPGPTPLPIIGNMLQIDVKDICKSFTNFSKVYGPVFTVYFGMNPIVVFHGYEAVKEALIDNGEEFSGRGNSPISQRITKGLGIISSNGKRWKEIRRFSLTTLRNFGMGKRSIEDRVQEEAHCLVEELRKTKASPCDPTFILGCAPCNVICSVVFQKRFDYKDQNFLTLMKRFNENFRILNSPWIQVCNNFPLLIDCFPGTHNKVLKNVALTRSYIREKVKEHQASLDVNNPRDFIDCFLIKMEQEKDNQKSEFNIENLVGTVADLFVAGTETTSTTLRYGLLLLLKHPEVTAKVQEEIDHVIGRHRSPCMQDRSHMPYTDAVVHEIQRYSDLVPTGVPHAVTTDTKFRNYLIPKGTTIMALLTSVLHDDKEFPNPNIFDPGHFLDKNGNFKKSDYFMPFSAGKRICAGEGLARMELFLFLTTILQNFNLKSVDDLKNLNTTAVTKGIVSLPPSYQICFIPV
assayExplanation: in vitro
conditionSet: both, microsomes, pH 7.4
measureName: activity at 20 min, 0.37 µM (%)
The reply should be a number in %, with the unit left off.

Please look up its activity at 20 min, 0.37 µM: `CC(C)(O)c1ccccc1CC[C@@H](SCC1(CC(=O)O)CC1)c1cccc(/C=C/c2ccc3ccc(Cl)cc3n2)c1` 26.8

###

targetOfAssay: BCRP (Homo sapiens, UniProt Q9UNQ0)
Sequence (Q9UNQ0 1-655): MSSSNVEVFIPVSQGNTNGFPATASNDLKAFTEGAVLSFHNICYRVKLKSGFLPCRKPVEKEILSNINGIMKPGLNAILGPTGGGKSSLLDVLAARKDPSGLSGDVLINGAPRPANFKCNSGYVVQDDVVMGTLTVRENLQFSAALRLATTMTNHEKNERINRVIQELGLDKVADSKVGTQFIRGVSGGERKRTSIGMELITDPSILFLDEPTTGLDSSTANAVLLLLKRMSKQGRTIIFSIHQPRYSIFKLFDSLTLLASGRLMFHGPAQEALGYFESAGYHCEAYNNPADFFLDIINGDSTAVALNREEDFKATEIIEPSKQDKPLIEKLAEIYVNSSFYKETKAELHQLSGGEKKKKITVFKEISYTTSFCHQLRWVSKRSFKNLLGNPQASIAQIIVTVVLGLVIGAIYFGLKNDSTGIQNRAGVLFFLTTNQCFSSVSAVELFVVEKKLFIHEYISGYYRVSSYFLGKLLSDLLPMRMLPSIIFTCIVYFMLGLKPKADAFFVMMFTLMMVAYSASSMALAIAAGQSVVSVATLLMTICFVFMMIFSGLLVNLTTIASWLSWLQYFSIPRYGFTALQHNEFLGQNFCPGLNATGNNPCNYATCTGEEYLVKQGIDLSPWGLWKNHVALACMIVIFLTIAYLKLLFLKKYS
assayExplanation: BCRP substrate assessment, BCRP-MDCK monolayers
Format: in vitro ADME
conditionSet: dog, pH 7.4, BCRP-MDCK; Cladribine; A-to-B; read-out: Papp R2
measureName: Papp A→B at 120 min (nm/s)
Number only, in nm/s; omit the unit.

What Papp A→B at 120 min value was documented for this compound, `Nc1nc(Cl)nc2c1ncn2[C@H]1C[C@H](O)[C@@H](CO)O1` ? 2.8

###

targetOfAssay: CYP3A (Homo sapiens)
Sequence (P08684 2-503): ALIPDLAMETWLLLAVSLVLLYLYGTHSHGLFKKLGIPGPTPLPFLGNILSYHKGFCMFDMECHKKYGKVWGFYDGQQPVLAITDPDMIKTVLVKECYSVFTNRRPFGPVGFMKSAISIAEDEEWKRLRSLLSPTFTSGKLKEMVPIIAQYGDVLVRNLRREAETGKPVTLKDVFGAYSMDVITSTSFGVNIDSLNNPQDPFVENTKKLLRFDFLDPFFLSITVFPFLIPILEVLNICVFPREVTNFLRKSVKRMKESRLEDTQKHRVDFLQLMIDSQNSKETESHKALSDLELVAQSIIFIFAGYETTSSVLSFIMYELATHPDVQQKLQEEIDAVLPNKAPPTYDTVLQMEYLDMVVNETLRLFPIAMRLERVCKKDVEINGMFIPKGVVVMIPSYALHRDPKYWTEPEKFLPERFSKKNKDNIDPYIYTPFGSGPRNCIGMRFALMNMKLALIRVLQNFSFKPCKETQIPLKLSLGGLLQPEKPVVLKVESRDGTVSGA
assayExplanation: in vitro
conditionSet: both, microsomes, pH 7.4, % of Control Enzyme Activity, HLM, Testosterone probe, 1.00 μM
measureName: activity at 10 min, 1 µM (%)
Express your answer in %, writing the number without its unit.

So what's the measured activity at 10 min, 1 µM for this one? CC(=O)N1CCN(c2ccc(OCC3COC(Cn4ccnc4)(c4ccc(Cl)cc4Cl)O3)cc2)CC1 (stereo not shown) 3.54

###

assayExplanation: Compound 2 and metabolites in rat plasma, 50 mg/kg PO QD×10
Format: in vivo
conditionSet: Day 1; of Compound 2 AUC0-24; rat; 50 mg/kg PO
Measured % of Parent of individual entries
The answer consists of two parts: a number and, after it, its unit.

Examples with answers:
CCn1c(C#CCNc2ccccc2)cc2cc(CNCc3ccccc3)ccc21	1.6%
CCn1c(C#CCNc2ccc(F)cc2)cc2cc(CNC)ccc21	17.6%
CCn1c(C#CCNc2ccc(C)nc2)cc2cc(CNC3CCOCC3)ccc21	1.6%

Let's switch to this molecule now.
What measured % of Parent goes with `CCn1c(C#CCNc2ccc(Cl)cc2)cc2cc(CNC3CCN(C)CC3)ccc21` ? 0.0%

###

assayExplanation: in vitro
conditionSet: dog, MDCK-MDR1, pH 7.4
measureName: Papp at 120 min (×10⁻⁶ cm/s)
Report the value in ×10⁻⁶ cm/s with no unit label.

Which Papp at 120 min reading was recorded for the molecule CC(C)NCC(O)COc1cccc2ccccc12 (stereo not shown) [Propranolol] ? 20.3

###

assayExplanation: Compound 2 and metabolites in rat plasma, 50 mg/kg PO QD×10
Format: in vivo
conditionSet: rat plasma; Compound 2 50 mg/kg PO QD×1; 4 h
Property: Average Concentration; scope: individual compounds
Numeric answer only, unit ng/mL assumed.

Here's what some known entries look like.
CCn1c(C#CCNc2ccc(Cl)cc2)cc2cc(CNC3CCN(C)CC3)ccc21 [Compound 7]	2.15
CCn1c(C#CCNc2ccc(F)cc2)cc2cc(CNC)ccc21 [Compound 5]	845.83
CCn1c(C#CCNc2ccc(C)nc2)cc2cc(CNC3CCOCC3)ccc21 [Compound 8]	58.42

Next:
Endpoint output: Average Concentration of CCn1c(C#CCNc2ccccc2)cc2cc(CNCc3ccccc3)ccc21 [Compound 4] . Value? 74.85

###

targetOfAssay: CYP2B6 (Homo sapiens)
Sequence (P20813 whole entry): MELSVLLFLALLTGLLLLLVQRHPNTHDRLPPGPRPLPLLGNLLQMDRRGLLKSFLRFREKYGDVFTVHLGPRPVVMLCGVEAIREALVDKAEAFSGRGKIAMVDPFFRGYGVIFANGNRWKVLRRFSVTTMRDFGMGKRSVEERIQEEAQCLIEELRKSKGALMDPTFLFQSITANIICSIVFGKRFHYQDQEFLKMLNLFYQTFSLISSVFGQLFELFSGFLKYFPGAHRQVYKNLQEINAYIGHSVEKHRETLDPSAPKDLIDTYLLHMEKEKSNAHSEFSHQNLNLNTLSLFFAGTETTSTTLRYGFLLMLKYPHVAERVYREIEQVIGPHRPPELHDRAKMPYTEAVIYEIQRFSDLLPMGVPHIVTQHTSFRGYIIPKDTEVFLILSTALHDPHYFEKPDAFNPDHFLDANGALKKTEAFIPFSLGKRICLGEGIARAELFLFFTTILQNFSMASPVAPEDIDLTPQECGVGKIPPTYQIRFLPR
assayExplanation: CYP inhibition in human liver microsomes
Assay type: in vitro ADME
Parameters: from tissue; host or cells: pooled human liver microsomes, 200 donors
conditionSet: both sexes, pooled human liver microsomes, pH 7.4, HLM, 3.33 μM, read-out: % of Control Enzyme Activity
measureName: activity at 20 min, 3.33 µM (%)
Just the number in %, nothing appended.

GET /values?readout=activity at 20 min, 3.33 µM&item= S=P(N1CC1)(N1CC1)N1CC1 [Thio-TEPA] 69.7

###

Known Average Concentration of a selection of compounds
assayExplanation: Compound 2 and metabolites in rat plasma, 50 mg/kg PO QD×10
Assay type: in vivo
conditionSet: rat plasma; Compound 2 50 mg/kg PO QD×10; 24 h post tenth dose
Procedure: The proposed metabolite pathway was determined in vitro, and levels of potential metabolites were measured by LC/MS-MS in rat plasma remaining from the dose rising 10-day repeat dose study in rats. Six potential metabolites were quantified in the low (50 mg/kg) single dose rats. […] The male and female PK parameters were averaged together since there was <2-fold variation between the genders. All values deemed below the level of quantification (BLQ) were excluded from the PK parameters calculations.
Your answer is read as ng/mL, so omit the unit and give the number.

Worked cases, answers included:
CCn1c(C#CCNc2ccccc2)cc2cc(CNCc3ccccc3)ccc21	30.98
CCn1c(C#CCNc2ccc(F)cc2)cc2cc(CNC)ccc21	378.83
CCn1c(C#CCNc2ccc(Cl)cc2)cc2cc(CNC3CCN(C)CC3)ccc21	1.10

Turning now to a further record.
Fill in the blank: the reported Average Concentration of `CCn1c(C#CCNc2ccc(C)nc2)cc2cc(CNC3CCOCC3)ccc21` is ____. 5.44

###

Examples of molecules with documented Average Concentration follow.
assayExplanation: Compound 2 and metabolites in rat plasma, 50 mg/kg PO QD×10
Format: in vivo
conditionSet: rat plasma; Compound 2 50 mg/kg PO QD×10; 4 h post tenth dose
Protocol: The proposed metabolite pathway was determined in vitro, and levels of potential metabolites were measured by LC/MS-MS in rat plasma remaining from the dose rising 10-day repeat dose study in rats. Six potential metabolites were quantified in the low (50 mg/kg) single dose rats. […] The male and female PK parameters were averaged together since there was <2-fold variation between the genders. All values deemed below the level of quantification (BLQ) were excluded from the PK parameters calculations.
Report the value in ng/mL with no unit label.

CCn1c(C#CCNc2ccc(C)nc2)cc2cc(CNC3CCOCC3)ccc21	46.33
CCn1c(C#CCNc2ccc(F)cc2)cc2cc(CNC)ccc21	820.17
CCn1c(C#CCNc2ccc(Cl)cc2)cc2cc(CNC3CCN(C)CC3)ccc21	2.09

GET /values?readout=Average Concentration&item= `CCn1c(C#CCNc2ccccc2)cc2cc(CNCc3ccccc3)ccc21` 71.65

###

targetOfAssay: P-GP (Homo sapiens, UniProt P08183)
Sequence (P08183 whole entry): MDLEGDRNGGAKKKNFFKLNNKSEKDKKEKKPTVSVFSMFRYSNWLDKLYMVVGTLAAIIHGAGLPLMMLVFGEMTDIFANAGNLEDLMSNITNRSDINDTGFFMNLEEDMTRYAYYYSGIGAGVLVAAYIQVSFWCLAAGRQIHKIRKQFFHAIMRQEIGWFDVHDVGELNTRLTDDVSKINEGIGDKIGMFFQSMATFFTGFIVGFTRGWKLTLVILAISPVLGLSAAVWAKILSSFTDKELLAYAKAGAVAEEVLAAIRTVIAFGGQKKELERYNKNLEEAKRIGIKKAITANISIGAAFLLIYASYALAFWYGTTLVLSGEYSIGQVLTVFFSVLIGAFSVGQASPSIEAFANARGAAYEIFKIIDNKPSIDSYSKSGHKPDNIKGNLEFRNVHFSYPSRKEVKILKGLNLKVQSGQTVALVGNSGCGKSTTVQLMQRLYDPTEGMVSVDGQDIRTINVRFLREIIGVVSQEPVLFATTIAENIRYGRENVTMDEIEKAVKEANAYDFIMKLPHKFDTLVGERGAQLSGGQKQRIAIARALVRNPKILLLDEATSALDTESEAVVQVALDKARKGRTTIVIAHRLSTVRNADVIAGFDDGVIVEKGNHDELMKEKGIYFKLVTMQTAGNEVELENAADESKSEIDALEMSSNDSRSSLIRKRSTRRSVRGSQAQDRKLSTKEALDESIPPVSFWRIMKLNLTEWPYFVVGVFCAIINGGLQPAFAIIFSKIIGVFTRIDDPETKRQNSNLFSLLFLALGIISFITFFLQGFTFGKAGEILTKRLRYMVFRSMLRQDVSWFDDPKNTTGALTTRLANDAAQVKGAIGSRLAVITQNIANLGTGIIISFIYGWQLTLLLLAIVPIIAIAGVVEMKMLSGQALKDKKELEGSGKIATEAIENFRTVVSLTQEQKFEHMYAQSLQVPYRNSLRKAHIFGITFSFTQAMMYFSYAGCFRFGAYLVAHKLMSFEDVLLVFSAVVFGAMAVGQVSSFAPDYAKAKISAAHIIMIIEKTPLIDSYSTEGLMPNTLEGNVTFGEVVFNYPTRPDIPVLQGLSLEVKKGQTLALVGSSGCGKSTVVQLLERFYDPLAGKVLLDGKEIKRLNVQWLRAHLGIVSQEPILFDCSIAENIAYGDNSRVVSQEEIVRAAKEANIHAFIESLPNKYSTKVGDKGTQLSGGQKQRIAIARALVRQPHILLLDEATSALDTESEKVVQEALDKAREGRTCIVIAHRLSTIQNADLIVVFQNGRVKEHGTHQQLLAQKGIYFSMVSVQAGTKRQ
assayExplanation: in vitro
conditionSet: dog, MDCK-MDR1, pH 7.4
measureName: Papp B→A at 120 min (×10⁻⁶ cm/s)
# value in ×10⁻⁶ cm/s; strip the unit string

Papp B→A at 120 min for `C[C@H]1O[C@@H](O[C@H]2[C@@H](O)C[C@H](O[C@H]3[C@@H](O)C[C@H](O[C@H]4CC[C@@]5(C)[C@H](CC[C@@H]6[C@@H]5C[C@@H](O)[C@]5(C)[C@@H](C7=CC(=O)OC7)CC[C@]65O)C4)O[C@@H]3C)O[C@@H]2C)C[C@H](O)[C@@H]1O` ? 10.4

###

assayExplanation: in vitro
conditionSet: male, beagle, dog
Entries and their measured recovery at 60 min, 2 μM follow.
Please answer using the number first and the unit second.

CCN(CC)CCCC(C)Nc1ccnc2cc(Cl)ccc12 (centres unmarked) [Chloroquine, chloroquine]	113%

Now examine the next entry.
Tell me the measured recovery at 60 min, 2 μM of O=C(O)Cc1ccccc1Nc1c(Cl)cccc1Cl [Diclofenac] , please. 104%

Origin of measurements: patent US20230049952A1
